Target: Protein cereblon/B-cell lymphoma 6 protein (Homo sapiens, UniProt Q96SW2+P41182)
Sequence (Q96SW2 whole entry, looked up, other chains not shown): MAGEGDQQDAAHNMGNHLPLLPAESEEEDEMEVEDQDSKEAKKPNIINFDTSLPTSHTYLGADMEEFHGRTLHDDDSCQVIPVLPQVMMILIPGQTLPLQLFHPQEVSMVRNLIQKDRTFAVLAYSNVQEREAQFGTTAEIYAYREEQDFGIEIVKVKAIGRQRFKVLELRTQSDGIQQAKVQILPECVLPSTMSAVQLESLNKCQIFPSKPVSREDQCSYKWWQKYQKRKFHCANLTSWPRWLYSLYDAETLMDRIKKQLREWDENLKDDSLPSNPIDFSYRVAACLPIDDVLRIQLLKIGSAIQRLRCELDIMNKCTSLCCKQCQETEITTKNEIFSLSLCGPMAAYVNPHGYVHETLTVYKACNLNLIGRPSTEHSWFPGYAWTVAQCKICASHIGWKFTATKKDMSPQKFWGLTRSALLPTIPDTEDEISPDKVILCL
Assay: PROTAC activity at CRBN/BCL6 in BCL6-dependent human SU-DHL-4 cells assessed as induction of BCL6 degradation by measuring degradation rate at 10 uM incubated for 48 hrs by Western blot analysis relative to control
Type: cell-based
Quick rule: Activity of at least 50% means yes, below that means no.

Study these solved cases before continuing.
COc1cc(Nc2nc(N3CCN(C(=O)CCOCCNc4cccc5c4C(=O)N(C4CCC(=O)NC4=O)C5=O)CC3)ncc2F)ccc1NC(=O)c1ccc(C2=CCCC2)s1 (configuration not stated) :: no
COc1cc(Nc2nc(N3CCN(C(=O)CCOCCOCCNc4cccc5c4C(=O)N(C4CCC(=O)NC4=O)C5=O)CC3)ncc2F)ccc1NC(=O)c1ccc(C2=CCCC2)s1 (configuration not stated) :: no
COc1cc(Nc2nc(N3CCN(CCCCCNc4cccc5c4C(=O)N(C4CCC(=O)NC4=O)C5=O)CC3)ncc2F)ccc1NC(=O)c1ccc(C2=CCCC2)s1 (configuration not stated) :: yes
COc1cc(Nc2nc(N3CCN(C(=O)CCCCCCNc4cccc5c4C(=O)N(C4CCC(=O)NC4=O)C5=O)CC3)ncc2F)ccc1NC(=O)c1ccc(C2=CCCC2)s1 (configuration not stated) :: no
COc1cc(Nc2nc(N3CCN(CCOCCNc4cccc5c4C(=O)N(C4CCC(=O)NC4=O)C5=O)CC3)ncc2F)ccc1NC(=O)c1ccc(C2=CCCC2)s1 (configuration not stated) :: yes

Inquiry: Given COc1cc(Nc2nc(N3CCN(C(=O)CCOCCOCCOCCNc4cccc5c4C(=O)N(C4CCC(=O)NC4=O)C5=O)CC3)ncc2F)ccc1NC(=O)c1ccc(C2=CCCC2)s1 (configuration not stated) , state whether its Activity is at least 50%.
Reply text: no

Inquiry: Is Activity at least 50%? Consider COc1cc(Nc2nc(N3CCN(C(=O)CCOCCNc4ccc5c(c4)C(=O)C(C4CCC(=O)NC4=O)C5=O)CC3)ncc2F)ccc1NC(=O)c1ccc(C2=CCCC2)s1 (configuration not stated)
Reply text: no
